Catalogue of normalized RNA/DNA level with ligand (log10) readings, one per entry.
B1: library; a variant is named by its letters at N, in order (parent)
chain: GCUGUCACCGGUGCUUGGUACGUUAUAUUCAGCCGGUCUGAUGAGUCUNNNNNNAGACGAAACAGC

variants of: B1; experiment: normalized RNA/DNA level with ligand (relative to sTRSVctl = 100) (log10 (% of sTRSVctl)); HEK293T overexpressing SLC46A1; ligand concentration (+) RNA-Seq: 6 mM; higher = less ribozyme self-cleavage, higher mRNA level; conditions: with (6R,S)-folinic acid; ligand present: yes
Property measured: normalized RNA/DNA level with ligand (log10)

INSERT INTO assay_data (construct_sequence, reading) VALUES
  ('GCUGUCACCGGUGCUUGGUACGUUAUAUUCAGCCGGUCUGAUGAGUCUAUGUAAAGACGAAACAGC [AUGUAA]', 2),
  ('GCUGUCACCGGUGCUUGGUACGUUAUAUUCAGCCGGUCUGAUGAGUCUGCCCUUAGACGAAACAGC [GCCCUU]', 2.01),
  ('GCUGUCACCGGUGCUUGGUACGUUAUAUUCAGCCGGUCUGAUGAGUCUGAUUCGAGACGAAACAGC [GAUUCG]', 2.01),
  ('GCUGUCACCGGUGCUUGGUACGUUAUAUUCAGCCGGUCUGAUGAGUCUUCAUAGAGACGAAACAGC [UCAUAG]', 1.98),
  ('GCUGUCACCGGUGCUUGGUACGUUAUAUUCAGCCGGUCUGAUGAGUCUUGGCCAAGACGAAACAGC [UGGCCA]', 2.06),
  ('GCUGUCACCGGUGCUUGGUACGUUAUAUUCAGCCGGUCUGAUGAGUCUCGAAUUAGACGAAACAGC [CGAAUU]', 2.01),
  ('GCUGUCACCGGUGCUUGGUACGUUAUAUUCAGCCGGUCUGAUGAGUCUUAAACCAGACGAAACAGC [UAAACC]', 2.01),
  ('GCUGUCACCGGUGCUUGGUACGUUAUAUUCAGCCGGUCUGAUGAGUCUUGGAGGAGACGAAACAGC [UGGAGG]', 1.96),
  ('GCUGUCACCGGUGCUUGGUACGUUAUAUUCAGCCGGUCUGAUGAGUCUUAAGUAAGACGAAACAGC [UAAGUA]', 1.98),
  ('GCUGUCACCGGUGCUUGGUACGUUAUAUUCAGCCGGUCUGAUGAGUCUUGAGUGAGACGAAACAGC [UGAGUG]', 1.93),
  ('GCUGUCACCGGUGCUUGGUACGUUAUAUUCAGCCGGUCUGAUGAGUCUGGAAAAAGACGAAACAGC [GGAAAA]', 2.04),
  ('GCUGUCACCGGUGCUUGGUACGUUAUAUUCAGCCGGUCUGAUGAGUCUUAAGCAAGACGAAACAGC [UAAGCA]', 1.99),
  ('GCUGUCACCGGUGCUUGGUACGUUAUAUUCAGCCGGUCUGAUGAGUCUUACAACAGACGAAACAGC [UACAAC]', 2.02),
  ('GCUGUCACCGGUGCUUGGUACGUUAUAUUCAGCCGGUCUGAUGAGUCUUAUUCUAGACGAAACAGC [UAUUCU]', 2.04),
  ('GCUGUCACCGGUGCUUGGUACGUUAUAUUCAGCCGGUCUGAUGAGUCUGCUUGCAGACGAAACAGC [GCUUGC]', 2.01),
  ('GCUGUCACCGGUGCUUGGUACGUUAUAUUCAGCCGGUCUGAUGAGUCUUUAAGGAGACGAAACAGC [UUAAGG]', 1.98),
  ('GCUGUCACCGGUGCUUGGUACGUUAUAUUCAGCCGGUCUGAUGAGUCUUUAACAAGACGAAACAGC [UUAACA]', 1.97),
  ('GCUGUCACCGGUGCUUGGUACGUUAUAUUCAGCCGGUCUGAUGAGUCUGUUUAUAGACGAAACAGC [GUUUAU]', 1.99),
  ('GCUGUCACCGGUGCUUGGUACGUUAUAUUCAGCCGGUCUGAUGAGUCUGACUUGAGACGAAACAGC [GACUUG]', 1.99),
  ('GCUGUCACCGGUGCUUGGUACGUUAUAUUCAGCCGGUCUGAUGAGUCUUUUAGAAGACGAAACAGC [UUUAGA]', 2.03),
  ('GCUGUCACCGGUGCUUGGUACGUUAUAUUCAGCCGGUCUGAUGAGUCUGGGACAAGACGAAACAGC [GGGACA]', 2),
  ('GCUGUCACCGGUGCUUGGUACGUUAUAUUCAGCCGGUCUGAUGAGUCUUGACCCAGACGAAACAGC [UGACCC]', 2.02);
